# reported IC50; entries follow
- system under test: PAK1 (Homo sapiens)
- experiment notes: Additional in vitro PAK1 inhibition assay at ATP 10 uM and 1 mM
- Format: biochemical
- settings: 10 μM ATP; read-out: PAK1 IC50 (10 μM ATP)

{"columns": ["compound", "system under test", "IC50"],
 "data": [
  ["Cc1nc(-c2ccc(-c3cc4cnc(NC5CCNC(=O)C5)nc4n(Cc4c(F)cccc4C(F)(F)F)c3=O)c(Cl)c2)no1 (stereo not shown) [drawing 354]", "PAK1 (Homo sapiens)", "< 50 nM"],
  ["CCn1c(=O)c(-c2ccc(-c3noc(C)n3)cc2Cl)cc2cnc(NC3COC3)nc21", "PAK1 (Homo sapiens)", "50 to 500 nM"],
  ["CCn1c(=O)c(-c2ccc(-c3noc(C)n3)cc2Cl)cc2cnc(NCCCN(C)C)nc21", "PAK1 (Homo sapiens)", "500 to 5000 nM"],
  ["Cc1nc(-c2ccc(-c3cc4cnc(NC5CCOCC5)nc4n(CCC4CCNCC4)c3=O)c(Cl)c2)no1 [drawing 343]", "PAK1 (Homo sapiens)", "< 50 nM"]
]}

---

- system under test: PAK2 (PAK65) (Homo sapiens, UniProt Q13177)
- Sequence (Q13177 whole entry): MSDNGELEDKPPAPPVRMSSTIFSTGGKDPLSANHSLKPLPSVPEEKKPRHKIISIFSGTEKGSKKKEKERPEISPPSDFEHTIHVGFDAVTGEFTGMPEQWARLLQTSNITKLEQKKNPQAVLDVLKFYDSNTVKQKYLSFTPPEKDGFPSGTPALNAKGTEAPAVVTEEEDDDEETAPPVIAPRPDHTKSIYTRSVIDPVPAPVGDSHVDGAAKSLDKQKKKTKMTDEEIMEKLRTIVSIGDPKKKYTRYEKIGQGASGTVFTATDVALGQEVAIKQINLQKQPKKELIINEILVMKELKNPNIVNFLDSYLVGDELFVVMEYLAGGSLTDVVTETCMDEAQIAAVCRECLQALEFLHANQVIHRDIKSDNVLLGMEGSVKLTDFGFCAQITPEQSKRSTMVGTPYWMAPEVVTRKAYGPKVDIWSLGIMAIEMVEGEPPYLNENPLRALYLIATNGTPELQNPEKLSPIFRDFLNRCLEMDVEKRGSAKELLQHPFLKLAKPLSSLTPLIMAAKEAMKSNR
- experiment notes: In vitro PAK inhibition assay (Z'-LYTE, SelectScreen), PAK2
- Format: biochemical
- settings: read-out: PAK2 IC50
Known IC50 of a selection of molecules
metric: IC50

{"columns": ["molecule", "system under test", "metric", "test value"],
 "data": [
  ["CCn1c(=O)c(-c2ccc(-c3cncc(C)n3)cc2Cl)cc2cnc(NC3CCC(CCN(C)C)CC3)nc21 (stereo not shown) [Example 70]", "PAK2 (PAK65) (Homo sapiens, UniProt Q13177)", "IC50", "< 50 nM"],
  ["CCn1c(=O)c(-c2ccc(-c3cccnc3F)cc2Cl)cc2cnc(N[C@@H]3CCOC3)nc21 [Example 40]", "PAK2 (PAK65) (Homo sapiens, UniProt Q13177)", "IC50", "50 to 500 nM"],
  ["Cc1cncc(-c2ccc(-c3cc4cnc(NCC(C)C)nc4n([C@H]4CC[C@H](N)CC4)c3=O)c(Cl)c2)n1 [Example 115]", "PAK2 (PAK65) (Homo sapiens, UniProt Q13177)", "IC50", "< 50 nM"],
  ["CCn1c(=O)c(-c2ccc(-c3cncc(C)n3)cc2Cl)cc2cnc(N[C@@H]3CCOC3)nc21 [Example 28]", "PAK2 (PAK65) (Homo sapiens, UniProt Q13177)", "IC50", "< 50 nM"],
  ["COCCCn1c(=O)c(-c2ccc(-c3cncc(C)n3)cc2Cl)cc2cnc(N[C@H]3CCOC3)nc21 [Example 65]", "PAK2 (PAK65) (Homo sapiens, UniProt Q13177)", "IC50", "< 50 nM"],
  ["Cc1nccnc1-c1ccc(-c2cc3cnc(N[C@@H]4CCOC4)nc3n(Cc3ccccn3)c2=O)c(Cl)c1 [Example 123]", "PAK2 (PAK65) (Homo sapiens, UniProt Q13177)", "IC50", "< 50 nM"],
  ["CCn1c(=O)c(-c2cc(C)c(-c3cncc(C)n3)cc2Cl)cc2cnc(N[C@H]3CCOC3)nc21 [Example 72]", "PAK2 (PAK65) (Homo sapiens, UniProt Q13177)", "IC50", "< 50 nM"]
]}

---

- system under test: PAK1 (Homo sapiens, UniProt Q13153)
- Sequence (Q13153 whole entry): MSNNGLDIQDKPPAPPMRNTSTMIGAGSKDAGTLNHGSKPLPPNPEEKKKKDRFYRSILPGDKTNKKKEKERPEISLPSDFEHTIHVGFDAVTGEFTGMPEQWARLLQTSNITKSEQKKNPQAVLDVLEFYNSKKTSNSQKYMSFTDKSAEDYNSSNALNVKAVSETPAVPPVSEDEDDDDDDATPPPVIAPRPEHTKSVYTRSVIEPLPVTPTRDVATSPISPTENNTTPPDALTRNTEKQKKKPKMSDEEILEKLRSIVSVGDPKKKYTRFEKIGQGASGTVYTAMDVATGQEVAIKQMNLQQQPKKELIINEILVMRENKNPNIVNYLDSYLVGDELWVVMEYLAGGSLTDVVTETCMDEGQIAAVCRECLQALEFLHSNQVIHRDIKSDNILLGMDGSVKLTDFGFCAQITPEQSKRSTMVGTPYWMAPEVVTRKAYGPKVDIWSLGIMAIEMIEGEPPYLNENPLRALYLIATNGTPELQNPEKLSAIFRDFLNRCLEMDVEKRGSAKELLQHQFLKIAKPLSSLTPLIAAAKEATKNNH
- experiment notes: Additional in vitro PAK1 inhibition assay at ATP 10 uM and 1 mM
- Type: biochemical
- settings: 1 mM ATP; read-out: PAK1 IC50 (1 mM ATP)
pIC50: −log10 of the molar value.
Quick reference: pIC50 of the listed items.

{"columns": ["compound", "pIC50"],
 "data": [
  ["CCn1c(=O)c(-c2ccc(-c3noc(C)n3)cc2Cl)cc2cnc(NN3CCOCC3)nc21", "≤ 5.30"],
  ["CCn1c(=O)c(-c2ccc(-c3noc(C)n3)cc2Cl)cc2cnc(NC(C)C)nc21", "≤ 5.30"],
  ["Cc1nc(-c2ccc(-c3cc4cnc(NC5CCNC(=O)C5)nc4n(Cc4c(F)cccc4C(F)(F)F)c3=O)c(Cl)c2)no1 (stereo not shown) [drawing 354]", "5.30 to 6.30"],
  ["CCNc1ncc2cc(-c3ccc(-c4noc(C)n4)cc3Cl)c(=O)n(CC)c2n1", "≤ 5.30"]
]}

---

- system under test: PAK1 (Homo sapiens, UniProt Q13153)
- experiment notes: Additional in vitro PAK1 inhibition assay at ATP 10 uM and 1 mM
- Assay type: biochemical
- settings: 10 μM ATP; read-out: PAK1 IC50 (10 μM ATP)
pIC50: −log10 of the molar value.
# Lookup of reported pIC50 keyed by entry
metric: pIC50

{"columns": ["molecule", "metric", "test value"],
 "data": [
  ["Cc1nc(-c2ccc(-c3cc4cnc(NC5CCOCC5)nc4n(CC(=O)NC4CCCNC4)c3=O)c(Cl)c2)no1 (stereo not shown)", "pIC50", "6.30 to 7.30"],
  ["Cc1nc(-c2ccc(-c3cc4cnc(NC5CCOCC5)nc4n(Cc4ccccc4)c3=O)c(Cl)c2)no1", "pIC50", "5.30 to 6.30"],
  ["Cc1nc(-c2ccc(-c3cc4cnc(NC5CCOCC5)nc4n(Cc4cccc(CCN)c4)c3=O)c(Cl)c2)no1 [drawing 339]", "pIC50", "> 7.30"],
  ["Cc1nc(-c2ccc(-c3cc4cnc(NC5CCOCC5)nc4n(-c4ccccc4)c3=O)c(Cl)c2)no1", "pIC50", "6.30 to 7.30"],
  ["CCCCn1c(=O)c(-c2ccc(-c3noc(C)n3)cc2Cl)cc2cnc(NC3CCOCC3)nc21", "pIC50", "6.30 to 7.30"],
  ["CCn1c(=O)c(-c2ccc(-c3noc(C)n3)cc2Cl)cc2cnc(NC(C)C)nc21", "pIC50", "5.30 to 6.30"],
  ["CCn1c(=O)c(-c2ccc(-c3noc(C)n3)cc2Cl)cc2cnc(NC3COC4(CCCC4)C3)nc21 (stereo not shown)", "pIC50", "5.30 to 6.30"],
  ["CCn1c(=O)c(-c2ccc(-c3noc(C)n3)cc2Cl)cc2cnc(NCc3cccnc3)nc21", "pIC50", "5.30 to 6.30"],
  ["Cc1nc(-c2ccc(-c3cc4cnc(NC5CCOCC5)nc4n(C4CCN(C(=O)CN)CC4)c3=O)c(Cl)c2)no1", "pIC50", "6.30 to 7.30"],
  ["CCn1c(=O)c(-c2ccc(-c3noc(C)n3)cc2Cl)cc2cnc(NC3CC3c3ccccc3)nc21 (stereo not shown)", "pIC50", "5.30 to 6.30"],
  ["Cc1nc(-c2ccc(-c3cc4cnc(NC5CCOCC5)nc4n(C4CC4)c3=O)c(Cl)c2)no1", "pIC50", "6.30 to 7.30"],
  ["CCn1c(=O)c(-c2ccc(-c3noc(C)n3)cc2Cl)cc2cnc(N[C@H]3CC[C@H](N4CCN(C)CC4)CC3)nc21", "pIC50", "5.30 to 6.30"],
  ["Cc1nc(-c2ccc(-c3cc4cnc(NC5CCOCC5)nc4n(CC(=O)N4CCC(CN)CC4)c3=O)c(Cl)c2)no1 [drawing 352]", "pIC50", "> 7.30"],
  ["Cc1nc(-c2ccc(-c3cc4cnc(NC5CCOCC5)nc4n(C4CCN(CCN)C4)c3=O)c(Cl)c2)no1 (stereo not shown)", "pIC50", "6.30 to 7.30"],
  ["Cc1nc(-c2ccc(-c3cc4cnc(NC5CCOCC5)nc4n(CC(=O)NCCCN)c3=O)c(Cl)c2)no1", "pIC50", "> 7.30"],
  ["CCn1c(=O)c(-c2ccc(-c3noc(C)n3)cc2Cl)cc2cnc(NCC3CCOCC3)nc21", "pIC50", "5.30 to 6.30"],
  ["Cc1nc(-c2ccc(-c3cc4cnc(NC5CC5)nc4n(Cc4cccc(CN)c4)c3=O)c(Cl)c2)no1", "pIC50", "> 7.30"],
  ["CCN1CCC(Cn2c(=O)c(-c3ccc(-c4noc(C)n4)cc3Cl)cc3cnc(NC4CCOCC4)nc32)CC1", "pIC50", "6.30 to 7.30"],
  ["Cc1nc(-c2ccc(-c3cc4cnc(NC5CCOCC5)nc4n(CC4CCNCC4)c3=O)c(Cl)c2)no1 [drawing 340]", "pIC50", "> 7.30"],
  ["Cc1nc(-c2ccc(-c3cc4cnc(NC5CCOCC5)nc4n(CC(=O)N4CCC(N)CC4)c3=O)c(Cl)c2)no1", "pIC50", "6.30 to 7.30"],
  ["CCn1c(=O)c(-c2ccc(-c3noc(C)n3)cc2Cl)cc2cnc(NC3CC3)nc21", "pIC50", "6.30 to 7.30"],
  ["Cc1nc(-c2ccc(-c3cc4cnc(NC5CCOCC5)nc4n(C4CCOCC4)c3=O)c(Cl)c2)no1", "pIC50", "6.30 to 7.30"],
  ["Cc1nc(-c2ccc(-c3cc4cnc(NC5CCOCC5)nc4n(CC4CCCN(C)C4)c3=O)c(Cl)c2)no1 (stereo not shown)", "pIC50", "6.30 to 7.30"],
  ["CCn1c(=O)c(-c2ccc(-c3noc(C)n3)cc2Cl)cc2cnc(NC3CCNC3=O)nc21 (stereo not shown)", "pIC50", "≤ 5.30"],
  ["Cc1nc(-c2ccc(-c3cc4cnc(NC5CCOCC5)nc4n(C4CCNC4)c3=O)c(Cl)c2)no1 (stereo not shown)", "pIC50", "5.30 to 6.30"],
  ["Cc1nc(-c2ccc(-c3cc4cnc(NC5CCOCC5)nc4n(Cc4c(F)cccc4C(F)(F)F)c3=O)c(Cl)c2)no1", "pIC50", "6.30 to 7.30"],
  ["CCn1c(=O)c(-c2ccc(-c3noc(C)n3)cc2Cl)cc2cnc(NC3CCN(C)C3=O)nc21 (stereo not shown)", "pIC50", "≤ 5.30"],
  ["CCN1CCC(CCNc2ncc3cc(-c4ccc(-c5noc(C)n5)cc4Cl)c(=O)n(CC)c3n2)CC1", "pIC50", "6.30 to 7.30"],
  ["CCn1c(=O)c(-c2ccc(-c3noc(C)n3)cc2Cl)cc2cnc(NCC(C)(C)O)nc21", "pIC50", "5.30 to 6.30"],
  ["CCn1c(=O)c(-c2ccc(-c3noc(C)n3)cc2Cl)cc2cnc(NCC3CCOC3)nc21 (stereo not shown)", "pIC50", "5.30 to 6.30"],
  ["CCCCNc1ncc2cc(-c3ccc(-c4noc(C)n4)cc3Cl)c(=O)n(CC)c2n1", "pIC50", "5.30 to 6.30"],
  ["CCn1c(=O)c(-c2ccc(-c3noc(C)n3)cc2Cl)cc2cnc(NC3CCCC3)nc21", "pIC50", "5.30 to 6.30"],
  ["CCn1c(=O)c(-c2ccc(-c3noc(C)n3)cc2Cl)cc2cnc(NCC(=O)NC)nc21", "pIC50", "5.30 to 6.30"],
  ["CCn1c(=O)c(-c2ccc(-c3noc(C)n3)cc2Cl)cc2cnc(NCCCNC(C)=O)nc21", "pIC50", "5.30 to 6.30"]
]}

The measured values listed here are drawn from patent US20130116263A1.
